# Study system: T1, recombinant human DLL4 (Cat# 1506-D4/CF, R&D Systems) (human, UniProt Q9NR61 27-529)
# T1 construct: Bought protein; also called hDLL4; rHuman DLL4
# Assay text: ELISA, DLL4 coated, Fab 50 nM
Measured ELISA absorbance at 450 nm, listed per entry for reference.
Report the figure in A450 without appending any unit label.

Fab VH5-51_IGHD5-18*01>3_IGHJ4*01 G100K/G104T & V3-4_IGLJ1*01 (Fab, V domains shown, Fab made in E. coli: VH on CH1 with His6 and Flag tags (Plasmid A), VL on lambda CL (Plasmid E); also called H: KT & L: wt) VH: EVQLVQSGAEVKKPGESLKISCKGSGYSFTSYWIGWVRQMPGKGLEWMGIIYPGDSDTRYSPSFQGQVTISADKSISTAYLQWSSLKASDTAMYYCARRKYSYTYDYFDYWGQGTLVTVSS VL: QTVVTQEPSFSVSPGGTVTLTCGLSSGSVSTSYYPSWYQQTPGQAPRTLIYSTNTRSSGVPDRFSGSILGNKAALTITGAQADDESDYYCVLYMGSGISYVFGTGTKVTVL :: 0.18

Now look at this one.
Dear colleague, please send me the reported ELISA absorbance at 450 nm for Fab VH5-51_IGHD5-18*01>3_IGHJ4*01 G100K/G104T G24T/S28R/G35V & V3-4_IGLJ1*01 V91L/S96P S52I (Fab, V domains shown, Fab made in E. coli: VH on CH1 with His6 and Flag tags (Plasmid A), VL on lambda CL (Plasmid E); also called H: KT TRV & L: LP S52I) VH: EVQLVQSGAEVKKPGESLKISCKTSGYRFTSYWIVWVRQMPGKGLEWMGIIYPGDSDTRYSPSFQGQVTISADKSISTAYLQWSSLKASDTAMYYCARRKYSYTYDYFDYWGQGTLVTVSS VL: QTVVTQEPSFSVSPGGTVTLTCGLSSGSVSTSYYPSWYQQTPGQAPRTLIYITNTRSSGVPDRFSGSILGNKAALTITGAQADDESDYYCLLYMGPGISYVFGTGTKVTVL when you can. 0.82
